test system: HePG2 hepatocarcinoma cells; type: cell-based; settings: human, 4 h, 10 μM
I'd appreciate it if you could supply Cell viability values for the items below.
Put down the number, then write its unit next to it.

Answered examples (2):
COc1cc(-c2cc(-c3cccc(N4CCNCC4)c3)cnc2N)cc(OC)c1OC: 110%
CNc1ncc(-c2ccc(N3CCNCC3)cc2)cc1-c1cc(OC)c(OC)c(OC)c1: 105%

Next:
Qu. Form field: reported Cell viability of Cc1cn(-c2cc(NC(=O)c3ccc(C)c(Nc4nccc(-c5cccnc5)n4)c3)cc(C(F)(F)F)c2)cn1 [Nilotinib, reference compound]
Ans. 106%

* * *

tested on: HePG2 hepatocarcinoma cells; format: cell-based; settings: human, 4 h, 100 μM
I'd appreciate it if you could supply Cell viability values for the items below.
Give bare numbers, in %.

Answered examples (3):
N#CC[C@H](C1CCCC1)n1cc(-c2ncnc3[nH]ccc23)cn1 [Ruxolitinib, reference compound]: 88
COc1cc(-c2cc(-c3ccc(N4CCNCC4)cc3)cnc2Cl)cc(OC)c1OC: 97
COc1cc(-c2cnc(N)c(-c3cc(OC)c(OC)c(OC)c3)c2)ccc1O: 93

Record Cell viability for all entries; do not skip any.
1. Nc1ncc(-c2ccc(N3CCNCC3)cc2)cc1-c1ccnc2ccccc12
2. Cc1cn(-c2cc(NC(=O)c3ccc(C)c(Nc4nccc(-c5cccnc5)n4)c3)cc(C(F)(F)F)c2)cn1 [Nilotinib, reference compound]
3. COc1cccc(-c2cc(-c3ccc(N4CCNCC4)cc3)cnc2N)c1
4. CS(=O)(=O)CCNCc1ccc(-c2ccc3ncnc(Nc4ccc(OCc5cccc(F)c5)c(Cl)c4)c3c2)o1 [Lapatinib, reference compound]

Ans.
1: 108; 2: 105; 3: 106; 4: 104

Record Cell viability for all entries; do not skip any.
1. COc1cc(-c2cc(-c3ccc(N4CCNCC4)cc3)cnc2N)cc(OC)c1OC
2. CNc1ncc(-c2ccc(N3CCNCC3)cc2)cc1-c1cc(OC)c(OC)c(OC)c1
3. COc1cc(-c2cc(-c3ccc(N4CCNCC4)cc3)cnc2C)cc(OC)c1OC
4. COc1cc(-c2cc(-c3cccc(N4CCNCC4)c3)cnc2N)cc(OC)c1OC
5. C#Cc1cccc(Nc2ncnc3cc(OCCOC)c(OCCOC)cc23)c1 [Erlotinib, reference compound]
6. COc1cc(-c2cc(-c3cccc(O)c3)cnc2N)cc(OC)c1OC [Compound K02288, reference compound]
7. COc1cc2ncnc(Nc3ccc(F)c(Cl)c3)c2cc1OCCCN1CCOCC1 [Gefitinib, reference compound]

Ans.
1. 103
2. 86
3. 88
4. 99
5. 108
6. 115
7. 104

Record Cell viability for all entries; do not skip any.
1. COc1cc(-c2cc(-c3ccc(O)cc3)cnc2N)cc(OC)c1OC
2. CCCS(=O)(=O)Nc1ccc(F)c(C(=O)c2c[nH]c3ncc(-c4ccc(Cl)cc4)cc23)c1F [Vemurafenib, reference compound]

Ans.
[91, 102]

* * *

molecular target: ALK2 (Homo sapiens, UniProt Q04771, Q207D); construct: His tag (TEV-cleavable) (N, cleaved yes); made in house; host or cells: Sf9 insect cells (baculovirus); assay: Thermal shift kinase assay ALK2; type: binding; details: 10 μM inhibitor
Sequence (Q04771 201-499 Q207D): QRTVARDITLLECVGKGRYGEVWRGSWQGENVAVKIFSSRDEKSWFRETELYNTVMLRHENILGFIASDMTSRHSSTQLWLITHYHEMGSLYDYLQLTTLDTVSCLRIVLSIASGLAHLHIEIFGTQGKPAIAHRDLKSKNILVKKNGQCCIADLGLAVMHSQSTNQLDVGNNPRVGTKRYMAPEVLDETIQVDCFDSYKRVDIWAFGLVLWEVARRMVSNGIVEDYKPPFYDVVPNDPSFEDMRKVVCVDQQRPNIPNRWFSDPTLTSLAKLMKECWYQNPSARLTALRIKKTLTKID
ASSAY_READOUT: ΔTm at 10 µM (°C)
Answers are plain numbers, in °C.

Answered examples (3):
COc1cc(-c2cc(-c3cccc(O)c3)cnc2N)cc(OC)c1OC [Compound K02288, reference compound]: 13.2
COc1cc(-c2cncc(-c3ccc(N4CCNCC4)cc3)c2)cc(OC)c1OC: 14
COc1cc(-c2cc(-c3ccc(N4CCNCC4)cc3)cnc2N)cc(OC)c1OC: 15.1

Next:
Qu. Form field: reported ΔTm at 10 µM of COc1cc(-c2cc(-c3ccc(N4CCNCC4)cc3)cnc2C)cc(OC)c1OC
Ans. 13.7

* * *

system: HePG2 hepatocarcinoma cells; type: cell-based; conditions: human, 24 h, 10 μM
I'd appreciate it if you could supply Cell viability values for the items below.
One number for each entry, in %.

COc1cc(-c2cc(-c3ccc(N4CCNCC4)cc3)cnc2N)ccc1C: 86
COc1cc(OC)cc(-c2cc(-c3ccc(N4CCNCC4)cc3)cnc2N)c1: 80
COc1cc(-c2cc(-c3ccc(N4CCNCC4)cc3)cnc2Cl)cc(OC)c1OC: 98
CNc1ncc(-c2ccc(N3CCNCC3)cc2)cc1-c1cc(OC)c(OC)c(OC)c1: 86
COc1cccc(-c2cc(-c3ccc(N4CCNCC4)cc3)cnc2N)c1: 100
COc1ccc(-c2cc(-c3ccc(N4CCNCC4)cc3)cnc2N)cc1: 104
COc1cc(-c2cc(-c3ccc(N4CCNCC4)cc3)cnc2C)cc(OC)c1OC: 78
COc1cc(-c2cc(-c3cccc(O)c3)cnc2N)cc(OC)c1OC [Compound K02288, reference compound]: 110
COc1cc(-c2cc(-c3ccc(N4CCNCC4)cc3)cnc2N)cc(OC)c1OC: 96
COc1cc(-c2cnc(N)c(-c3cc(OC)c(OC)c(OC)c3)c2)ccc1O: 88

Record Cell viability for all entries; do not skip any.
1. Nc1ncc(-c2ccc(N3CCNCC3)cc2)cc1-c1cccc2ncccc12
2. Nc1ncc(-c2ccc(N3CCNCC3)cc2)cc1-c1ccc2c(c1)OCCO2
3. CS(=O)(=O)CCNCc1ccc(-c2ccc3ncnc(Nc4ccc(OCc5cccc(F)c5)c(Cl)c4)c3c2)o1 [Lapatinib, reference compound]

Ans.
1: 95; 2: 95; 3: 92

Record Cell viability for all entries; do not skip any.
1. COc1cc(-c2cc(-c3ccc(N4CCNCC4)cc3)cnc2N(C)C)cc(OC)c1OC
2. COc1cc(-c2cc(-c3ccc(O)cc3)cnc2N)cc(OC)c1OC
3. COc1cc(-c2cc(-c3cccc(NS(C)(=O)=O)c3)cnc2N)cc(OC)c1OC
4. COc1cc(OC)cc(-c2cncc(-c3ccc(N4CCNCC4)cc3)c2)c1

Ans.
1: 91; 2: 89; 3: 98; 4: 92

* * *

Test system: HePG2 hepatocarcinoma cells
Format: cell-based
Conditions: human, 24 h, 1 μM
Description: The cells were incubated for 2 h (37° C. and 5% CO2) and allowed to settle and attach. Compounds of interest or DMSO were diluted in DMEM and added at final compound concentrations of 1 μM, 10 μM, and 100 μM. […] Cell viability was determined by quantifying the ATP present in each well by adding 10 μL of CellTiter-Glo (Promega) per well and measuring the light output Spectramax L luminometer (Molecular Devices) with an integration time of one second per well. […]
ASSAY_READOUT: Cell viability
Put down the number, then write its unit next to it.

COc1cc(-c2cc(-c3cccc(NS(C)(=O)=O)c3)cnc2N)cc(OC)c1OC [Compound 13]: 101%
Nc1ncc(-c2cccc(N3CCNCC3)c2)cc1-c1ccnc2ccccc12 [Compound 30]: 104%
CCN(CC)CCNC(=O)c1c(C)[nH]c(/C=C2\C(=O)Nc3ccc(F)cc32)c1C [Sunitinib, reference compound]: 96%

Qu. Query the reported Cell viability for HePG2 hepatocarcinoma cells; item: COc1cc(-c2cc(-c3ccc(N4CCNCC4)cc3)cnc2Cl)cc(OC)c1OC [Compound 27]
Ans. 101%

* * *

I'd appreciate it if you could supply Cell viability values for the items below.
system: HePG2 hepatocarcinoma cells; format: cell-based; conditions: human, 4 h, 10 μM
Give bare numbers, in %.

Record Cell viability for all entries; do not skip any.
1. N#CC[C@H](C1CCCC1)n1cc(-c2ncnc3[nH]ccc23)cn1 [Ruxolitinib, reference compound]
2. CC(C)Oc1cccc(-c2cc(-c3ccc(N4CCNCC4)cc3)cnc2N)c1 [Compound 21]
3. COc1cc(-c2cc(-c3cccc(NS(C)(=O)=O)c3)cnc2N)cc(OC)c1OC [Compound 13]
4. C#Cc1cccc(Nc2ncnc3cc(OCCOC)c(OCCOC)cc23)c1 [Erlotinib, reference compound]

Ans.
1. 105
2. 105
3. 100
4. 107

* * *

I'd appreciate it if you could supply pIC50 values for the items below.
system: TGFβ1; test: Ligand induced transcriptional activity assay TGFβ1 (CAGA-Luc); conditions: Homo sapiens; cell-based signaling inhibition
Give bare numbers, as −log10 of the molar value.

Answered examples (3):
COc1cc(-c2cnc(N)c(-c3cc(OC)c(OC)c(OC)c3)c2)ccc1O [Compound 12]: 5.64
COc1cc(-c2cc(-c3ccc(O)cc3)cnc2N)cc(OC)c1OC [Compound 11]: 6.24
COc1cc(-c2cc(-c3ccc(N4CCNCC4)cc3)cnc2Cl)cc(OC)c1OC [Compound 27]: 4.05

Record pIC50 for all entries; do not skip any.
1. COc1cc(-c2cc(-c3ccc(N4CCNCC4)cc3)cnc2OC)cc(OC)c1OC [Compound 28]
2. COc1cc(-c2cc(-c3ccc(N4CCNCC4)cc3)cnc2N(C)C)cc(OC)c1OC [Compound 25]

Ans.
4.09
4.82
